Method Notes: amyloid nucleation score (Sup35N fusion, yeast selection) (log enrichment); library NNK3; higher = more nucleation; inactive = no reads after selection;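 note: zero at mode of non-aggregating sequences after 7 days selection at 30°C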
Recorded Metric: amyloid nucleation score

Example substances with recorded amyloid nucleation score:
>  <Substance>
LIINIHDRLLVRVPLWDWLR

>  <Data Value>
inactive

$$$$
>  <Substance>
ILSNDEFTCKFCCSCSYRGG

>  <Data Value>
0.956

$$$$
>  <Substance>
INFHMS

>  <Data Value>
inactive

$$$$
>  <Substance>
AENINCKMM

>  <Data Value>
1.45

$$$$
>  <Substance>
VTHGSVCFTTIYRTIWRFNR

>  <Data Value>
inactive

$$$$
>  <Substance>
TSLLILRCSGE

>  <Data Value>
inactive

$$$$
>  <Substance>
RRLPSELYMSYHYHFFFKSG

>  <Data Value>
inactive

$$$$
>  <Substance>
LDRCNFISTILPQIRFSV

>  <Data Value>
inactive

$$$$

## Input Look up amyloid nucleation score for this substance: WGRISNAHG
## Output inactive

## Input Look up amyloid nucleation score for this substance: RIVFSKVMLVEIRTSLWFCT
## Output inactive

## Input Look up amyloid nucleation score for this substance: NYRRGVRKPSFCL
## Output inactive

Just for reference, the supplement of paper PMC12042874 is where these values come from.
